# TEST SYSTEM: rat mGlu2 SNAP-tagged receptor (rat, UniProt P31421 19-872, SNAP tag labelled with SNAP-Lumi4-Tb)
# Sequence (P31421 19-872): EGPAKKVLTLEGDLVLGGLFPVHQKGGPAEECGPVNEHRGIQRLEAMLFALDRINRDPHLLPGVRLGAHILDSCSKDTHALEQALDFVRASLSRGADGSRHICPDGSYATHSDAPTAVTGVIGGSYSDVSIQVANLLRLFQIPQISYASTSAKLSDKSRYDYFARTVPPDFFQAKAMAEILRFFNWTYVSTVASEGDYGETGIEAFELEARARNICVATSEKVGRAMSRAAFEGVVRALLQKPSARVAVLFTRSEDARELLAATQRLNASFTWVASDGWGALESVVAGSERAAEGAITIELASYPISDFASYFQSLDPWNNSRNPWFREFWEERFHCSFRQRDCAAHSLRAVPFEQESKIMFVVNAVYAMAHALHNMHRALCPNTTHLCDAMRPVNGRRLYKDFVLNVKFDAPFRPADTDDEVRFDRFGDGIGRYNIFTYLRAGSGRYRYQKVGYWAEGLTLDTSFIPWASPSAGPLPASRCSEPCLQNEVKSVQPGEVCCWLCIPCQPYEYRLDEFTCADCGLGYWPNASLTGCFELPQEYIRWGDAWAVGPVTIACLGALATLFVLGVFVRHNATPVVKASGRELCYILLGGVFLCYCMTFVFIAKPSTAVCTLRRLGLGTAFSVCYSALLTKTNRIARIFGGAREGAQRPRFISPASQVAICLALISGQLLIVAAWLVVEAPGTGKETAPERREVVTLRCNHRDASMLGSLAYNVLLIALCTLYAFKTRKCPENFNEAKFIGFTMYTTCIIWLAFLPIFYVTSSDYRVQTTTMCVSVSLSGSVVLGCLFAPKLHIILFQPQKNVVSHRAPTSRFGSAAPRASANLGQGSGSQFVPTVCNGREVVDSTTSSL
# EXPERIMENTAL DETAILS: cell-based or functional assay
PROPERTY LABEL: PAM effect G protein coupling, pEC50 (pEC50)
Provide the reading as a plain figure in pEC50.

Look up PAM effect G protein coupling, pEC50 for this binder: IGF-1251 (IGF-1159 GS IGF-1168) (bispecific antibody) QVQLVQSGGGLVQAGGSLRLSCAASGRTFSSFAMAWFRQAPGKEREFVAAISWSGSTGHADSVKGRFTITRDNAKNTVFLQMNSLKPEDTAVYYCALGKGSSYYYSPSGYDYWGQGTQVTVSSGGGGSGGGGSGGGGSQVQLVQSGGGLVQAGGSLRLSCAASVRFFSINTMGWYRQAPGKQRELVADITSSGSTNYADSGKGRFTISRDNAKNTVYLQMNRLKPEDTAVYYCHADYKYTTHNTAWGQGTQVTVSS 7.65

Look up PAM effect G protein coupling, pEC50 for this binder: IGF-1159 nanobody (VHH) VHH: QVQLVQSGGGLVQAGGSLRLSCAASGRTFSSFAMAWFRQAPGKEREFVAAISWSGSTGHADSVKGRFTITRDNAKNTVFLQMNSLKPEDTAVYYCALGKGSSYYYSPSGYDYWGQGTQVTVSS 6.96

Look up PAM effect G protein coupling, pEC50 for this binder: IGF-1252 (IGF-1159 HcAb IGF-1168) (bispecific antibody) QVQLVQSGGGLVQAGGSLRLSCAASGRTFSSFAMAWFRQAPGKEREFVAAISWSGSTGHADSVKGRFTITRDNAKNTVFLQMNSLKPEDTAVYYCALGKGSSYYYSPSGYDYWGQGTQVTVSSEPKIPQPQPKPQPQPQPQPQPKPQPKPEPQVQLVQSGGGLVQAGGSLRLSCAASVRFFSINTMGWYRQAPGKQRELVADITSSGSTNYADSGKGRFTISRDNAKNTVYLQMNRLKPEDTAVYYCHADYKYTTHNTAWGQGTQVTVSS 7.94
